Reference source for all entries: patent US11279691B2

The following compounds are shown together with reported EC50 values.
Molecular target: PDE4D3 (Homo sapiens)
Construct: GST
Assay type: biochemical
Settings: GST-tagged PDE4D3, 200 nM FAM-cAMP, 11-point dose-response; read-out: PD4d3 pEC50 (converted)

smiles.string: COc1ncc(Cc2cnc(CO)cn2)cc1-c1cccc(Cl)c1
EC50: < 0.1 µM
//
smiles.string: CCOc1ncc(Cn2cnc(CO)n2)cc1-c1cccc(N(C)C)c1
EC50: 1 to 10 µM
//
smiles.string: Nc1ncn(Cc2cnc(OC(F)F)c(-c3cccc(Cl)c3)c2)n1
EC50: 0.1 to 1 µM
//
smiles.string: COc1ncc(Cc2cnc(C(C)(C)C(N)=O)nc2)cc1-c1cccc(Cl)c1
EC50: 0.1 to 1 µM
//
smiles.string: CCOc1cc(-c2cc(Cn3nnnc3C)cnc2OCC)ccn1
EC50: 0.1 to 1 µM

----------
The following molecules are shown together with reported EC50 values.
Molecular target: PDE4D3 (Homo sapiens, UniProt Q08499)
Construct: GST
Sequence (Q08499 1-673 isoform Q08499-2): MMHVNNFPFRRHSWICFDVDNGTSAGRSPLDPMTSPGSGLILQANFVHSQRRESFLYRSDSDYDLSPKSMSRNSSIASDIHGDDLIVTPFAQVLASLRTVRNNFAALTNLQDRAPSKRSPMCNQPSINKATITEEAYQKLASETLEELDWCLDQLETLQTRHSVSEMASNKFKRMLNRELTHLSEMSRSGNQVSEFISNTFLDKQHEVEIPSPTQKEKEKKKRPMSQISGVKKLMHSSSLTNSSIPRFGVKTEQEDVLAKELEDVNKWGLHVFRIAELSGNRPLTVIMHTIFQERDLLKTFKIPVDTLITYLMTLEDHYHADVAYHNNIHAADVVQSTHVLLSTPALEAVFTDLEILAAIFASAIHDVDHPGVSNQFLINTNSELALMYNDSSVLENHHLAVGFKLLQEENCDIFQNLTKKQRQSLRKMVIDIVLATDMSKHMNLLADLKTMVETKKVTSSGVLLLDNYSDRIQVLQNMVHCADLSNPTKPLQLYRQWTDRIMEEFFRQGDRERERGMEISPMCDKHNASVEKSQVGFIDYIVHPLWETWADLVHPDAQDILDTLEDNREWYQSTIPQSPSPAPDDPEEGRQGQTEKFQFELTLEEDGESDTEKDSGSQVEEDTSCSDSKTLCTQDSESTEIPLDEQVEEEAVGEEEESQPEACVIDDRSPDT
Format: biochemical
Settings: GST-tagged PDE4D3, 200 nM FAM-cAMP, 11-point dose-response; read-out: PD4d3 pEC50 (converted)

smiles.string: COc1ncc(Cn2cc(CO)nc2C)cc1-c1ccnc(OC(F)F)c1
EC50: 100 to 1000 nM
//
smiles.string: CCOc1ncc(Cn2cnc(CO)n2)cc1-c1cncc(Cl)c1
EC50: 1000 to 10000 nM
//
smiles.string: CCOc1cccc(-c2cc(Cn3cnc(CO)n3)cnc2OCC)c1
EC50: 100 to 1000 nM
//
smiles.string: COc1ncc(Cn2cc(CO)nc2C)cc1-c1ccc(F)cc1
EC50: 100 to 1000 nM
//
smiles.string: COc1ncc(Cc2cnc(CO)nc2)cc1-c1cccc(Cl)c1
EC50: < 100 nM
//
smiles.string: COc1ncc(Cn2cc(CO)nc2C)cc1-c1cccc(Cl)c1
EC50: 100 to 1000 nM
//
smiles.string: NC(=O)Cc1ncn(Cc2cnc(OC(F)F)c(-c3cccc(Cl)c3)c2)n1
EC50: < 100 nM
//
smiles.string: COc1ncc(Cc2cnc(N)cn2)cc1-c1ccc(F)c(Cl)c1
EC50: < 100 nM
//
smiles.string: COc1ncc(Cc2cnc(NCCO)nc2)cc1-c1ccc(F)cc1
EC50: 100 to 1000 nM

----------
The following molecules are shown together with reported EC50 values.
Biological target: PDE4D3 (Homo sapiens, UniProt Q08499)
Construct: GST
Format: biochemical
Conditions: GST-tagged PDE4D3, 200 nM FAM-cAMP, 11-point dose-response; read-out: PD4d3 pEC50 (converted)

molecule: COc1ncc(Cc2cnc(N)nc2)cc1-c1cccc(C#N)c1 [Example 356]
target.entity: PDE4D3 (Homo sapiens, UniProt Q08499)
EC50: 100 to 1000 nM

molecule: CCOc1ncc(Cn2cnc(CO)n2)cc1-c1cccc(C(F)(F)F)c1 [Example 332]
target.entity: PDE4D3 (Homo sapiens, UniProt Q08499)
EC50: 1000 to 10000 nM

molecule: CCOc1ncc(Cc2cnc(N)nc2)cc1-c1ccc(F)c(C)c1 [Example 352]
target.entity: PDE4D3 (Homo sapiens, UniProt Q08499)
EC50: < 100 nM

molecule: COc1ncc(Cc2ccc(CC(N)=O)cc2)cc1-c1cccc(Cl)c1 [Example 280]
target.entity: PDE4D3 (Homo sapiens, UniProt Q08499)
EC50: < 100 nM

molecule: COc1ncc(Cc2cnc(C(N)=O)nc2)cc1-c1ccc(F)cc1 [Example 374]
target.entity: PDE4D3 (Homo sapiens, UniProt Q08499)
EC50: 100 to 1000 nM

molecule: CCOc1ncc(Cc2cnc(CO)c(F)c2)cc1-c1ccnc(OC(F)F)c1 [Example 405]
target.entity: PDE4D3 (Homo sapiens, UniProt Q08499)
EC50: < 100 nM

molecule: COc1ncc(Cc2ccc(CC(N)=O)cc2)cc1-c1ccc(F)cc1 [Example 364]
target.entity: PDE4D3 (Homo sapiens, UniProt Q08499)
EC50: < 100 nM

molecule: COc1ncc(Cn2nnc(CO)n2)cc1-c1cccc(Cl)c1 [Example 388]
target.entity: PDE4D3 (Homo sapiens, UniProt Q08499)
EC50: 100 to 1000 nM

molecule: CCOc1ncc(Cn2cnc(C(F)(F)F)n2)cc1-c1cccc(OC(F)F)c1 [Example 162]
target.entity: PDE4D3 (Homo sapiens, UniProt Q08499)
EC50: 100 to 1000 nM

molecule: COc1ncc(Cn2ccc(C(N)=O)n2)cc1-c1ccnc(C#N)c1 [Example 307]
target.entity: PDE4D3 (Homo sapiens, UniProt Q08499)
EC50: 1000 to 10000 nM

molecule: COc1ncc(Cc2cnc(C)cn2)cc1-c1cccc(Cl)c1 [Example 377]
target.entity: PDE4D3 (Homo sapiens, UniProt Q08499)
EC50: < 100 nM

molecule: COc1ncc(Cn2ccc(C(N)=O)n2)cc1-c1cccc(Cl)c1 [Example 308]
target.entity: PDE4D3 (Homo sapiens, UniProt Q08499)
EC50: 100 to 1000 nM

molecule: CCOc1ncc(Cn2nnnc2C)cc1-c1ccc(F)c(Cl)c1 [Example 398]
target.entity: PDE4D3 (Homo sapiens, UniProt Q08499)
EC50: < 100 nM

molecule: CCCOc1ncc(Cc2cnc(N)nc2)cc1-c1ccc(F)c(F)c1 [Example 278]
target.entity: PDE4D3 (Homo sapiens, UniProt Q08499)
EC50: < 100 nM

molecule: COc1ncc(Cc2cnc(N)cn2)cc1-c1ccc(Cl)c(F)c1 [Example 379]
target.entity: PDE4D3 (Homo sapiens, UniProt Q08499)
EC50: 100 to 1000 nM

molecule: N#CCc1ncn(Cc2cnc(OC(F)F)c(-c3cccc(Cl)c3)c2)n1 [Example 285]
target.entity: PDE4D3 (Homo sapiens, UniProt Q08499)
EC50: 100 to 1000 nM

molecule: COc1ncc(Cc2cnc(N3CCOCC3)nc2)cc1-c1cccc(Cl)c1 [Example 292]
target.entity: PDE4D3 (Homo sapiens, UniProt Q08499)
EC50: 1000 to 10000 nM

molecule: COc1ncc(Cn2cc(CO)nc2C)cc1-c1ccc(F)c(F)c1 [Example 345]
target.entity: PDE4D3 (Homo sapiens, UniProt Q08499)
EC50: 100 to 1000 nM

molecule: COc1ncc(Cn2cc(C(F)F)nc2C)cc1-c1ccnc(OC(F)F)c1 [Example 297]
target.entity: PDE4D3 (Homo sapiens, UniProt Q08499)
EC50: 100 to 1000 nM

----------
Molecular target: PDE4D3 (Homo sapiens, UniProt Q08499)
Construct: GST
Type: biochemical
Conditions: GST-tagged PDE4D3, 200 nM FAM-cAMP, 11-point dose-response; read-out: PD4d3 pEC50 (converted)
recorded.endpoint: EC50

compound: COc1ncc(Cn2cnc(CO)n2)cc1-c1cccc(Cl)c1 [Example 336]
recorded.endpoint: EC50
reported.result: < 0.1 µM
--
compound: COc1ncc(Cn2nnc(CO)n2)cc1-c1ccc(F)c(F)c1 [Example 383]
recorded.endpoint: EC50
reported.result: 0.1 to 1 µM
--
compound: COc1ncc(Cc2cnc(CC(N)=O)nc2)cc1-c1ccc(F)c(F)c1 [Example 368]
recorded.endpoint: EC50
reported.result: < 0.1 µM
--
compound: CCOc1ncc(Cn2cnc(CO)n2)cc1-c1cc(F)cc(F)c1 [Example 338]
recorded.endpoint: EC50
reported.result: 0.1 to 1 µM
--
compound: CCOc1ncc(Cn2cc(CO)cn2)cc1-c1cccc(Cl)c1 [Example 273]
recorded.endpoint: EC50
reported.result: 0.1 to 1 µM

----------
The following compounds are shown together with reported EC50 values.
Molecular target: PDE4D3 (Homo sapiens, UniProt Q08499)
Construct: GST
Type: biochemical
Settings: GST-tagged PDE4D3, 200 nM FAM-cAMP, 11-point dose-response; read-out: PD4d3 pEC50 (converted)

smiles.string: CCOc1ncc(Cn2c(CO)cnc2C)cc1-c1cccc(Cl)c1
EC50: 100 to 1000 nM

smiles.string: COc1ncc(Cc2cnc(NCCO)cn2)cc1-c1cccc(Cl)c1
EC50: < 100 nM

smiles.string: N#CCc1ncc(Cc2cnc(OCC(F)F)c(-c3cccc(Cl)c3)c2)cn1
EC50: < 100 nM

smiles.string: NC(=O)Cc1ncc(Cc2cnc(OCC(F)(F)F)c(-c3cccc(Cl)c3)c2)cn1
EC50: 100 to 1000 nM

smiles.string: COc1ncc(Cc2cnc(N)cn2)cc1-c1cccc(Cl)c1
EC50: < 100 nM

smiles.string: CCOc1ncc(Cn2cnc(C(N)=O)c2)cc1-c1ccnc(OC(F)F)c1
EC50: 100 to 1000 nM

smiles.string: CCOc1ncc(Cc2cncc(F)c2)cc1-c1ccnc(OC(F)F)c1
EC50: < 100 nM

smiles.string: CCOc1ncc(Cn2cnc(CO)n2)cc1-c1cccc(OC(F)(F)F)c1
EC50: 100 to 1000 nM

smiles.string: CCOc1ncc(Cn2nc(N)cc2C)cc1-c1cccc(Cl)c1
EC50: 100 to 1000 nM

smiles.string: CCOc1ncc(Cn2cc(CO)nc2C)cc1-c1cccc(Cl)c1
EC50: < 100 nM

smiles.string: COc1ncc(Cc2cnc(CC(N)=O)nc2)cc1-c1ccc(Cl)c(F)c1
EC50: 100 to 1000 nM

smiles.string: COc1ncc(Cn2nnc(CO)n2)cc1-c1ccc(Cl)c(F)c1
EC50: 100 to 1000 nM

smiles.string: CCOc1cc(-c2cc(Cc3cnc(N)nc3)cnc2OC)ccc1F
EC50: 100 to 1000 nM

smiles.string: COc1ncc(Cc2cnc(N3CC(O)C3)nc2)cc1-c1cccc(Cl)c1
EC50: 100 to 1000 nM

smiles.string: CCOc1ncc(Cn2nnnc2C)cc1-c1ccc(F)c(F)c1
EC50: < 100 nM

smiles.string: CCOc1ncc(Cc2cnc(N)nc2)nc1-c1ccc(F)c(F)c1
EC50: < 100 nM

smiles.string: COc1ncc(Cc2cnc(N)nc2)cc1-c1ccc(F)c(C)c1
EC50: 100 to 1000 nM
